# Test system: UO-31 renal
# assay info: NCI tumour cell line growth inhibition, 48 h; in the data active = GI50 below about 0.43 µM; inactive = the rest
# valid calls are active, inactive; nothing else

Here's what some known entries look like.
>>> label_class("Nc1nccc2c1ccn2-c1ccc(NC(=O)c2ccc(N3CCOCC3)c(C(F)(F)F)c2)cc1")
"inactive"
>>> label_class("CC1(C)OCCn2c1nc1c(N3CCOCC3)nc(-c3cnc(N)nc3)nc12")
"active"
>>> label_class("Cc1cn2c(/C=C3\\C(=O)Nc4ccc(O)cc43)c(-c3ccc(Cl)cc3)nc2s1")
"inactive"
>>> label_class("Cn1cnc([N+](=O)[O-])c1S(=O)(=O)Oc1ccccc1")
"inactive"
>>> label_class("C=CC(=O)N1CCC(C2CCNc3c(C(N)=O)c(-c4ccc(Oc5ccccc5)cc4)nn32)CC1 (configuration not stated)")
"inactive"
>>> label_class("COC12C=C/C(=C(/C(=O)OCc3ccncc3)C(=O)CCCCCCCCC3(OC)C=C/C(=C(/C(=O)OCc4ccncc4)C(=O)CCCCCCCC1)O3)O2")
"inactive"

Next item in the queue.
Task: Which result was noted for this molecule in the test: COc1cccc(/C=N/[N-]C(=O)c2ccncc2)c1[O-].[Cu+2].[OH3+]
Output: inactive

* * *

# System: HL-60(TB) leukemia
# assay info: NCI tumour cell line growth inhibition, 48 h
Recorded TGI for the following compounds

>>> result("C[C@H]1Oc2cc(cnc2N)-c2c(nn(C)c2C#N)CN(C)C(=O)c2ccc(F)cc21")
"> 100 µM"
>>> result("CC(NNC(=O)CC(=O)N(C(=O)c1ccccc1)c1ccc(Cl)cc1)c1cc2ccccc2oc1=O (stereo unspecified)")
"> 10 µM"
>>> result("CCCCn1c(C)c2c(c1C)C(=O)N(CC(O)CN1CCc3ccccc3C1)C2=O (stereo unspecified)")
"> 100 µM"
>>> result("Cc1c(CNc2ccc(C(=O)NC(CC(=O)O)C(=O)O)cc2)ccc2nc(N)nc(N)c12 (stereo unspecified)")
"> 1000 µM"
>>> result("CN1CCN(CN2C(=O)C3C4C=CC(C3C2=O)C2C(=O)N(CN3CCN(C)CC3)C(=O)C42)CC1 (stereo unspecified)")
"61.6 µM"

Task: Request body: readout TGI, system HL-60(TB) leukemia, query CCCNC(=S)/N=C/c1c(O)c2ccccc2[nH]c1=O . Return the value.
Output: > 100 µM

Task: # query: TGI | item Oc1ccc(-c2nc(-c3ccc(F)cc3)c(-c3ccc4ccccc4n3)[nH]2)cc1 | system: HL-60(TB) leukemia
Output: > 100 µM

Task: Quick check: TGI on HL-60(TB) leukemia, item COc1cc2c(cc1O)C1C(O)C(O)C=C3CCN(C2)C31 (stereo unspecified) ?
Output: 7.53 µM

Task: Entry CC(=O)OC12c3ccccc3-c3ccccc3C1C1C(=O)N(C)C(=O)C12Cl (stereo unspecified) , system HL-60(TB) leukemia: what TGI was measured?
Output: > 10 µM

Task: Form field: TGI recorded for Nc1nc(N)c(N=Nc2ccc([As](=O)(O)O)cc2)c(=O)[nH]1 with HL-60(TB) leukemia (enter value)
Output: > 100 µM

Task: What TGI appears in the records for this compound with HL-60(TB) leukemia? C1CSCCSCCS1
Output: > 100 µM

Task: # query: TGI | item CCOC(=O)c1csc(NC(=O)CN2CCN(C)CC2)n1 | system: HL-60(TB) leukemia
Output: > 100 µM

Task: Observed TGI on HL-60(TB) leukemia for COc1ccc(/C(=N\NC(=O)C(N)=O)C(c2ccc(OC)cc2)C2(O)C(=O)Nc3c(Cl)cccc32)cc1 (stereo unspecified) , please.
Output: > 100 µM

Task: What is its TGI for HL-60(TB) leukemia? Entry: O=C(NC(CO)Cc1ccc(Oc2cc(CC(CO)NC(=O)OCc3ccccc3)ccc2OC(=O)OCc2ccccc2)cc1)OCc1ccccc1 (stereo unspecified)
Output: 41.7 µM
